# PROTOCOL NOTES: protein stability index of a GFP-peptide fusion (GPS, HEK-293T) (PSI 1-6); higher = more stable;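 further: 24-mer peptide tiles fused after GFP, lentivirally expressed, FACS-sorted into six equal bins by GFP/DsRed ratio, decoded by Illumina sequencing, PSI is the read-weighted mean bin number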
# CONDITION CONTEXT: treatment: DMSO; c terminus: a fixed tail appended
As shown below, each of these sequences has a reported protein stability index value.
ASSAY READOUT: protein stability index

WAVQGQNVLHGYPKDIYSSFGFPR [MMP1]    2.39
IQYNRRQLLILLQNCTDEGEREAI [POP5]    2.74
VSRRLSPRKVSTCTDHELENHSMY [TRIM9]    3.7
YSGPPSPHGTLRVCTISSTGPLQP [PKD2L1]    2.65
VPPGVVNIVFGTGPRVGEALVSHP [ALDH8A1]    2.21
KEEEEKDHNEAMKPEEPPQNLLRE [PCMTD1]    5.39
AGPGAAEPLPVERDPAAGAAPFRF [ZNF511]    4.38
DDFHTNDVCSFPNALVTKLLLDCG [FEM1B]    2.55
THLLKQGRSSMGTGLSGGKRPSQE [CRY1]    4.35
SRSNNMGIVGGFTQMIREGGARSL [SLC25A25]    3.17
AMPPYGQGPPMVPPYQGGPPRPPM [ZNF207]    3.79
KLAEAYLNLGPALSAALASSQKQH [C8orf76]    2.68
IQFIKLFGMAKIDNLLQEMLLGGS [HNF4A]    2.84
VVNHLSCDEARNHYGGVVSLIPLI [SPACA9]    2.2
FGGGSTRGGSLLAGGGGFGGGSLS [KRT15]    2.54
AVMRGQILNLTQALKDNKSPLHLV [PI4K2A]    2.33
IYQTLFLNGENSDIKICALGEEWS [GMCL1]    2.26
AHVGMELQLKQELAMLNAVTEDLR [SCARA5]    3.27
AIIRERSSCVKILLDHNANIDIQN [ASB7]    2.52
MQAASSKMVSAEISENRKRQWPTK [SDE2]    4.33
VSSSEQLQSCQAEIIELRRTVNAL [KRT34]    3.02
APSEGSAEAAPELDLFAMKPPETS [SNAP91]    5.39
RPNDDSLAFLDKIKSVKESLQESV [IQUB]    3.64
ASMSKRRCGVGVSVLDDLLYAVGG [KLHL20]    2.62
VAQFVLTEGNPRWEQTHLTYRIEN [MMP1]    2.35
RDGEPEPMQKLQDLVNRTPWKKCC [RBBP5]    4
MNTEAEQQLLHHARNGNAEEVRQL [OSBPL1A]    5.24

* * *

# PROTOCOL NOTES: protein stability index of a GFP-peptide fusion (GPS, HEK-293T) (PSI 1-6); higher = more stable
# CONDITION CONTEXT: treatment: MLN4924 1 uM, 8 h; c terminus: a fixed tail appended
ASSAY READOUT: protein stability index

PKKGPAPSLSPGSSCVKYLIFLSN [TSPAN10]    2.43
QKNKKILKSAKDLPPDALIIEYRG [KMT2E]    3.07
EEVLCDSCIGNKQKAVKSCLVCQA [TRIM29]    5.22
KCHLWTAMDLGFFVVMGVIGGLLG [CLCN6]    3
LAFVIVLLAHRLRRWHKSRLLQAS [PCDHGA10]    2.21
LCPLCGKNFSNNSNLIRHQRIHAA [ZNF263]    4.12
LLGRERDRVQVERDGLAEDLAALK [PRPH]    4.37
IHHLVLTASDGGDPLRSGTVLVSV [PCDHGA10]    2.79
RCVRVFLEHGADPTVKDLIGGFTA [ASB7]    2.04
PEGYNLKDEEGRLRDPATITTLRV [PPP2R2B]    4.37
KTLAVKNEEIQSFIYSLKQMLLNV [FSD1]    2.14
CHSFISGTAPLNQETAEFFLSLDI [ACSBG2]    2.6
VCQEVLERSRDVVDDVSVSLRLWD [RHOBTB2]    3.44
